Numbers sourced from patent US20260216326A1.

Target: T1, human TL1A (human, UniProt O95150 72-251, limits assumed)
T1 construct: also called tumor necrosis factor-like cytokine 1A; TNFSF15
T1 sequence (looked up): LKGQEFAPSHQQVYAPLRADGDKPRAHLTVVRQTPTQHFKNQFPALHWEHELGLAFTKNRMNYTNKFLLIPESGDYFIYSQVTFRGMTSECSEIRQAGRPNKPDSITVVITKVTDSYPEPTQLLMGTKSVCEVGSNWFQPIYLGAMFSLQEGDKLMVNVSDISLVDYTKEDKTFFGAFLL
Experiment: ELISA titration on plate-coated human TL1A, unpurified culture supernatant

binder	unit text	Kd
A175 (antibody, IgG1, V domains shown) VH: QVQLVQSGAEVKKPGASVKVSCKASGFDIQDTYMHWVKQAPGQGLEWMGRIDPASGHIKYDPKFQGRVTMTRDTSTSTVYMELSSLRSEDTAVYYCARSGGLPDWWGQGTTVTVSS VL: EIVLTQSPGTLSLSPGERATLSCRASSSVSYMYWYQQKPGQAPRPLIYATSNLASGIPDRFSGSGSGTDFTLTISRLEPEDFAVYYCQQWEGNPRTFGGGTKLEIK	nM	0.045
A223 (antibody, IgG1, V domains shown) VH: EVQLVQSGAEVKKPGASVKVSCKASGFDIQDTYMHWVRQRPGQGLEWIGRIDPASGHTKYDPKFQVRATITTDTSTSTAYLELSSLRSEDTAVYYCARSGGLPDVWGQGTTVTVSS VL: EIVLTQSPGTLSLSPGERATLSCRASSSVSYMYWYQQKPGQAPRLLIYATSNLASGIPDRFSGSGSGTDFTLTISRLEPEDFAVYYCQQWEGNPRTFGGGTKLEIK	nM	0.062
A214 (antibody, IgG1, V domains shown) VH: QVQLVQSGAEVKKPGASVKVSCKASGFDIQDTYMHWVRQRPGQGLEWMGRIDPASGHTKYDPKFQVRVTITRDTSTSTAYLELSSLRSEDTAVYYCARSGGLPDVWGQGTTVTVSS VL: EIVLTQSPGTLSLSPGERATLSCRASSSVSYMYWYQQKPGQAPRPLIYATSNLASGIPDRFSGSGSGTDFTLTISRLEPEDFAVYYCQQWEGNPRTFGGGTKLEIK	nM	0.051
